# systemUnderTest: T1, HLA-A2 on T2 cells pulsed with NY-ESO-1:157-165, wt peptide (C165) (human)
# T1 construct: also called T2 Pulsed NY-ESO-1_157-165
# assayNotes: flow cytometry, peptide-pulsed T2 cells
recordedEndpoint: pEC50
The read-out pEC50 is expressed as -log10 of concentration in moles per litre.

Prompt line: Param item = mAb24959N (antibody, human IgG4 S228P, kappa, V domains shown) VH: QLQLLESGPGLVKPSETLSLICTVSGGSIRGSSYYWGWIRQPPEKGLEWIGSIYSSGSTYYNPSLKSRVTISADTSKNQFSLKLSSVTAADTAVYYCARHGGITAVQLEFDPWGQGTLVTVSS VL: DIQMTQSPSSLSASVGDRVTITCQASQDISNYLKWYQQKPGKAPKILIHDASNLEIGVPSRFSGSGAGTDFIFTISSLQPEDIGTYYCQQYDNLPITFGQGTRLEIKR ; retrieve measured pEC50.
Response line: 8.96

Prompt line: Param item = mAb24958N (antibody, human IgG4 S228P, kappa, V domains shown) VH: QVQLQESGPGLVKPSQTLSLTCTVSGGSIISDGYYWSWIRQHPGKGLEWIGYVDYSGNTYYNPSLKSRIIMSVDTSKNQFSLKLTSVTAADTAVYFCVREGPLRDAFEIWGQGTMVTVSS VL: DIQMTQSPSSLSASVGDRVTITCRTSQSISRYLNWYQQKPGKAPKLLIFAASSLQSGVPSRFSGSGSGADFTLTISSLQPEDFATYYCQQSYSTPPITFGQGTRLEIKR ; retrieve measured pEC50.
Response line: 7.72
